Each item that follows carries a reported GI50.
Test system: HOP-62
Test: NCI tumour cell line growth inhibition, 48 h
Activity calls are given as the source filed them. Cut-off read from the data, not from the text of the source: active = GI50 up to about 1.1 µM and inactive = higher.

[
  {
    "compound": "COc1ccc(N2C(=O)C3c4[nH]c5ccccc5c4C4CCC(c5ccccc5)CC4C3C2=O)cc1 (stereo not given)",
    "GI50": "7.28 µM (inactive)"
  },
  {
    "compound": "c1ccc(-c2cc(C3CO3)c3ccccc3n2)cc1 (stereo not given)",
    "GI50": "26.5 µM (inactive)"
  },
  {
    "compound": "O=c1cc(N=P(c2ccccc2)(c2ccccc2)c2ccccc2)n(-c2ccccc2)c(=O)n1-c1ccccc1",
    "GI50": "6.52 µM (inactive)"
  },
  {
    "compound": "CC(=O)OCC(OC(C)=O)C(OC(C)=O)C(OC(C)=O)C(=O)CNn1c(-c2ccccc2Cl)nc2ccc(Br)cc2c1=O (stereo not given)",
    "GI50": "> 100 µM (inactive)"
  },
  {
    "compound": "CN[C@H](C)[C@@H](OC)c1ccccc1",
    "GI50": "> 100 µM (inactive)"
  }
]

---

System: U-251
Assay: NCI tumour cell line growth inhibition, 48 h
Activity calls are given as the source filed them. Rule as the data show it: active = GI50 up to about 1.1 µM and inactive = higher.

[
  {
    "compound": "CCOP(=O)(OCC)/C(C#N)=C/c1cnc(C)[nH]1",
    "GI50": "> 100 µM (inactive)"
  },
  {
    "compound": "O=C(/C=C/c1cccc([N+](=O)[O-])c1)c1cccnc1",
    "GI50": "20.6 µM (inactive)"
  },
  {
    "compound": "NP(=O)(Oc1c2occc2cc2ccc(=O)oc12)N(CCCl)CCCl (stereo unspecified)",
    "GI50": "> 100 µM (inactive)"
  },
  {
    "compound": "CCc1cc2c(c3[nH]ccc13)[C@@H](C)C[C@H]2C",
    "GI50": "16.4 µM (inactive)"
  },
  {
    "compound": "COc1ccc2c(c1)CC1Cc3ccccc3CCN1C2 (stereo unspecified)",
    "GI50": "76 µM (inactive)"
  },
  {
    "compound": "COc1ccc2c(C(=O)O)cc3ccccc3c2c1OC",
    "GI50": "40.9 µM (inactive)"
  }
]

---

System: RXF 631
Assay: NCI tumour cell line growth inhibition, 48 h
Activity calls are given as the source filed them. Rule as the data show it: active = GI50 up to about 1.1 µM and inactive = higher.
Labels: True = active, False = inactive

[
  {
    "mol": "CCOC(=O)NC(=O)c1cn(CCCO)c(=O)[nH]c1=O",
    "labelClass": "False"
  },
  {
    "mol": "COc1cc(O)c2c(c1)C(=O)C=C(Cl)C2=O",
    "labelClass": "False"
  },
  {
    "mol": "COC(=O)NC(=O)c1cn(CCCOC(=O)CCCCCCCCC(=O)OCCCn2cc(C(=O)NC(=O)OC)c(=O)[nH]c2=O)c(=O)[nH]c1=O",
    "labelClass": "False"
  },
  {
    "mol": "COC(=O)C(=O)CC(=O)CCn1ncc(Cl)c(Cl)c1=O",
    "labelClass": "False"
  },
  {
    "mol": "COc1ccc2c(CCNC(C)=O)c(C(C)=O)[nH]c2c1",
    "labelClass": "False"
  },
  {
    "mol": "COc1cc2c(c(OC)c1OC)-c1ccc(SC)c(=O)cc1[C@@H](NC(=O)c1ccc([N+](=O)[O-])cc1)CC2",
    "labelClass": "True"
  },
  {
    "mol": "CCOC(=O)CCn1cnc(N)n1",
    "labelClass": "False"
  },
  {
    "mol": "O=C(CCc1nnc2s/c(=C\\c3ccccc3[N+](=O)[O-])c(=O)n12)Nc1cc(Cl)c(Cl)cc1Cl",
    "labelClass": "False"
  },
  {
    "mol": "Cc1nc2c(N)ncnc2o1",
    "labelClass": "False"
  },
  {
    "mol": "COc1ccc(C(=O)O)c2c(=O)c3cccnc3[nH]c12",
    "labelClass": "False"
  },
  {
    "mol": "C/C(=N\\N=C(/S)N1CC2CCC(CC2)C1)c1cccc[n+]1[O-]",
    "labelClass": "False"
  },
  {
    "mol": "CN(C)c1[se]nc2c1c(=O)n(C)c(=O)n2C",
    "labelClass": "False"
  }
]
